Molecular target: EP2 (Homo sapiens (Human));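 also: antagonism of PGE2-stimulated cAMP accumulation in SF295 human glioblastoma cells with endogenous EP2, cAMP read by HTRF, expressed relative to DMSO control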
Sequence (P43116 whole entry): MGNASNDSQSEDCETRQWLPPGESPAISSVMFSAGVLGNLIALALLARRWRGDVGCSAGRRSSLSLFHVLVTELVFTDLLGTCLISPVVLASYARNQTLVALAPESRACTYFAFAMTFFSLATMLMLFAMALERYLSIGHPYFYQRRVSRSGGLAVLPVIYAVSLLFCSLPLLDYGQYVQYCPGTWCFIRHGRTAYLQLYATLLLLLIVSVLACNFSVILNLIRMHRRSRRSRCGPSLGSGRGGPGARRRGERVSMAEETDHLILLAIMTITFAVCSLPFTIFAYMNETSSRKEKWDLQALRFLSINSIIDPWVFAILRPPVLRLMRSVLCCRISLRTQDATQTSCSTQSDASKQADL

smiles str: CCOc1cc(-c2cc(NCCn3c(C)cc4c5c(cc(Cl)c43)OCO5)ncn2)ccc1C(=O)O
unit text: nM
IC50: 14
//
smiles str: COc1cc(F)c(F)c2c1cc(C)n2CCNc1cc(-c2ccc(-c3noc(=O)[nH]3)cc2)ncn1
unit text: nM
IC50: 33
//
smiles str: Cc1nc(CCC(=O)O)oc1-c1ccc(-c2cc(NCCn3c(C)cc4c(C)cc(F)cc43)ncn2)cc1
unit text: nM
IC50: 146
//
smiles str: COc1cc(F)cc2c1cc(C)n2CCNc1cc(-c2ccc(-c3nc(C)c(C)s3)cc2)ncn1
unit text: nM
IC50: 90
